Test system: MCF-7 cells
Assay Details: cell cytotoxic effects against MCF-7 cells (72 h), A490
Type: cell-based, human
Run Parameters: Homo sapiens, MCF7, 72 h, MCF-7, 72 h, 10 µM (DMSO 0.2%); read-out: A490 (control =1) ave
Description: !" ' ' '! !" ' ' '! !" ' ' '!!" ' ' '!!" ' ' '!!" ' ' '!!" ' ' '!!" ' ' '! !" ' ' '! !" ' ' '! !" ' ' '! !"#$ ( % ) * '! '' '# '+ '$ '( '% ! " # $ %& %% %' %( %) %! %" !" ' ' '! !" ' ' '!!" ' ' '!!" ' ' '!!" ' ' '!!" ' ' '!!" ' ' '! !" ' ' '! !" ' ' '! !" ' ' '! !" ' ' '! […] Supplementary Fig. 46. a, Cell cytotoxic effects of DDPs against MCF-7 cells (72 h). dose dependent cytotoxic effects against MCF-7 cells were tested their inhibitory activity against mammosphere formation. […]
Readings of viability at 10 µM for the listed compounds
Property Name: viability at 10 µM (%)

- Compound: "C=C1CC[C@H]2[C@]3(C)C[C@H](C=C(C)C)O[C@H]3CC[C@]2(C)[C@@H]1Cc1c(OC)oc(C)c(C)c1=O"
  Assay Target: "MCF-7 cells"
  Measure Unit: "%"
  Measured Value: 12.6
- Compound: "C=C1CC[C@H]2[C@]3(C)C[C@@H](C=C(C)C)O[C@H]3CC[C@]2(C)[C@@H]1Cc1c(OC)oc(CO)c(C)c1=O"
  Assay Target: "MCF-7 cells"
  Measure Unit: "%"
  Measured Value: 29.4
- Compound: "C=C1CCC2C(C)(CCC=C(C)C)C(O)CCC2(C)C1Cc1c(OC)oc(C)c(C(=O)OC)c1=O (centres unmarked)"
  Assay Target: "MCF-7 cells"
  Measure Unit: "%"
  Measured Value: 19.7
- Compound: "C=C1CCC2C3(C)CC(C=C(C)C)OC3CCC2(C)C1Cc1c(OC)oc(C)c(C)c1=O (centres unmarked)"
  Assay Target: "MCF-7 cells"
  Measure Unit: "%"
  Measured Value: 14.8
- Compound: "C=C1CC[C@H]2[C@]3(C)C[C@H](C=C(C)C)O[C@H]3CC[C@]2(C)[C@@H]1Cc1c(OC)oc(CO)c(C)c1=O"
  Assay Target: "MCF-7 cells"
  Measure Unit: "%"
  Measured Value: 15
